Recorded values, source paper PMC11200585.

assay: In vitro metabolic stability; format: in vitro ADME, rat (Sprague-Dawley); details: male, Sprague-Dawley, pH 7.4; Rat liver microsomes

- Compound: "COc1ccccc1NC1=C(Cl)C(=O)c2nc(C)ccc2C1=O [AQQ1]"
  half-life at 0.5 µM, min: 2
- Compound: "CCOc1ccccc1NC1=C(Cl)C(=O)c2nc(C)ccc2C1=O [AQQ2]"
  half-life at 0.5 µM, min: 3

* * *

Target or system SK-MEL-5; recorded quantity GI50.

- Smiles notation: "CCOc1ccccc1NC1=C(Cl)C(=O)c2nc(C)ccc2C1=O"
  GI50, nM: 1740
- Smiles notation: "COc1ccccc1NC1=C(Cl)C(=O)c2nc(C)ccc2C1=O"
  GI50, nM: 1750
- Smiles notation: "CCOc1ccc(NC2=C(Cl)C(=O)c3nc(C)ccc3C2=O)cc1"
  GI50, nM: 1720
- Smiles notation: "COc1cc(NC2=C(Cl)C(=O)c3nc(C)ccc3C2=O)cc(OC)c1"
  GI50, nM: 1620

* * *

test system: OVCAR-8; assay: NCI-60 one-dose screen (ovarian cancer); assay type: cell-based, human; conditions: 10 µM single dose, 48 h
Reported values of GP (growth percentage) for individual entries
Measured quantity: GP (growth percentage) (%)

- Smiles notation: "COc1cc(NC2=C(Cl)C(=O)c3nc(C)ccc3C2=O)cc(OC)c1"
  Measured quantity: "GP (growth percentage)"
  Endpoint value: "−0.82"
- Smiles notation: "COc1ccccc1NC1=C(Cl)C(=O)c2nc(C)ccc2C1=O"
  Measured quantity: "GP (growth percentage)"
  Endpoint value: 9.87
- Smiles notation: "CCOc1ccc(NC2=C(Cl)C(=O)c3nc(C)ccc3C2=O)cc1"
  Measured quantity: "GP (growth percentage)"
  Endpoint value: 1.03
- Smiles notation: "CCOc1ccccc1NC1=C(Cl)C(=O)c2nc(C)ccc2C1=O"
  Measured quantity: "GP (growth percentage)"
  Endpoint value: 0.93
- Smiles notation: "COc1ccc(NC2=C(Cl)C(=O)c3nc(C)ccc3C2=O)cc1OC"
  Measured quantity: "GP (growth percentage)"
  Endpoint value: 92.63

* * *

test system: UACC-62; assay: NCI-60 five-dose assay (melanoma); assay type: cell-based, human; settings: 48 h, SRB
Measured quantity: TGI (µM)

- Smiles notation: "CCOc1ccc(NC2=C(Cl)C(=O)c3nc(C)ccc3C2=O)cc1"
  Experimental system: "UACC-62"
  Quantity unit: "µM"
  Endpoint value: 3.29
- Smiles notation: "CCOc1ccccc1NC1=C(Cl)C(=O)c2nc(C)ccc2C1=O"
  Experimental system: "UACC-62"
  Quantity unit: "µM"
  Endpoint value: 3.36
- Smiles notation: "COc1cc(NC2=C(Cl)C(=O)c3nc(C)ccc3C2=O)cc(OC)c1"
  Experimental system: "UACC-62"
  Quantity unit: "µM"
  Endpoint value: 3.42
- Smiles notation: "COc1ccccc1NC1=C(Cl)C(=O)c2nc(C)ccc2C1=O"
  Experimental system: "UACC-62"
  Quantity unit: "µM"
  Endpoint value: 3.37

* * *

tested on: LOX IMVI; test: NCI-60 one-dose screen (melanoma); type: cell-based, human; conditions: 10 µM single dose, 48 h
Lab note - cut at -80% for GP (growth percentage): YES if strictly below, NO if not.

- Smiles notation: "COc1ccc(NC2=C(Cl)C(=O)c3nc(C)ccc3C2=O)cc1OC"
  Experimental system: "LOX IMVI"
  Class label: "NO"
- Smiles notation: "CCOc1ccc(NC2=C(Cl)C(=O)c3nc(C)ccc3C2=O)cc1"
  Experimental system: "LOX IMVI"
  Class label: "NO"
- Smiles notation: "COc1ccccc1NC1=C(Cl)C(=O)c2nc(C)ccc2C1=O"
  Experimental system: "LOX IMVI"
  Class label: "NO"
- Smiles notation: "COc1cc(NC2=C(Cl)C(=O)c3nc(C)ccc3C2=O)cc(OC)c1"
  Experimental system: "LOX IMVI"
  Class label: "YES"

* * *

assay: In vivo bioavailability / pharmacokinetic study IV and PO; design: species or system male Sprague-Dawley rats; conditions: male, Sprague-Dawley, whole blood; rat; IV 1 mg/kg
Reported values of AUC(0-t) for individual entries
Measured quantity: AUC(0-t) (ng·h/mL)

- Molecule: "CCOc1ccccc1NC1=C(Cl)C(=O)c2nc(C)ccc2C1=O [AQQ2]"
  Measured quantity: "AUC(0-t)"
  Quantity unit: "ng·h/mL"
  Endpoint value: 77
- Molecule: "COc1ccccc1NC1=C(Cl)C(=O)c2nc(C)ccc2C1=O [AQQ1]"
  Measured quantity: "AUC(0-t)"
  Quantity unit: "ng·h/mL"
  Endpoint value: 77.5

* * *

tested on: IGROV1; assay: NCI-60 five-dose assay (ovarian cancer); format: cell-based, human; settings: 48 h, SRB

- Molecule: "CCOc1ccccc1NC1=C(Cl)C(=O)c2nc(C)ccc2C1=O [AQQ2]"
  TGI (µM): 2.82
- Molecule: "COc1cc(NC2=C(Cl)C(=O)c3nc(C)ccc3C2=O)cc(OC)c1 [AQQ5]"
  TGI (µM): 3.55
- Molecule: "COc1ccccc1NC1=C(Cl)C(=O)c2nc(C)ccc2C1=O [AQQ1]"
  TGI (µM): 2.92
- Molecule: "CCOc1ccc(NC2=C(Cl)C(=O)c3nc(C)ccc3C2=O)cc1 [AQQ3]"
  TGI (µM): 2.76

* * *

tested on: SN12C; test: NCI-60 five-dose assay (renal cancer); format: cell-based, human; conditions: 48 h, SRB

- Smiles notation: "COc1ccccc1NC1=C(Cl)C(=O)c2nc(C)ccc2C1=O"
  Quantity unit: "µM"
  TGI: 3.29
- Smiles notation: "CCOc1ccccc1NC1=C(Cl)C(=O)c2nc(C)ccc2C1=O"
  Quantity unit: "µM"
  TGI: 3.04
- Smiles notation: "COc1cc(NC2=C(Cl)C(=O)c3nc(C)ccc3C2=O)cc(OC)c1"
  Quantity unit: "µM"
  TGI: 3.25
- Smiles notation: "CCOc1ccc(NC2=C(Cl)C(=O)c3nc(C)ccc3C2=O)cc1"
  Quantity unit: "µM"
  TGI: 2.99

* * *

test system: NCI/ADR-RES; experiment: NCI-60 one-dose screen (ovarian cancer); assay type: cell-based, human; conditions: 10 µM single dose, 48 h
Measured quantity: GP (growth percentage) (%)

- Smiles notation: "COc1ccccc1NC1=C(Cl)C(=O)c2nc(C)ccc2C1=O"
  Endpoint value: 7.08
- Smiles notation: "COc1ccc(NC2=C(Cl)C(=O)c3nc(C)ccc3C2=O)cc1OC"
  Endpoint value: 94.66
- Smiles notation: "COc1cc(NC2=C(Cl)C(=O)c3nc(C)ccc3C2=O)cc(OC)c1"
  Endpoint value: "−1.26"
- Smiles notation: "CCOc1ccc(NC2=C(Cl)C(=O)c3nc(C)ccc3C2=O)cc1"
  Endpoint value: "−15.63"
- Smiles notation: "CCOc1ccccc1NC1=C(Cl)C(=O)c2nc(C)ccc2C1=O"
  Endpoint value: "−9.58"

* * *

Reported values of LC50 (50% net cell kill) for individual entries
system: SK-OV-3; experiment: NCI-60 five-dose assay (ovarian cancer); assay type: cell-based, human; settings: Homo sapiens, 48 h, SRB
Measured quantity: LC50 (50% net cell kill) (µM)

- Smiles notation: "CCOc1ccccc1NC1=C(Cl)C(=O)c2nc(C)ccc2C1=O"
  Experimental system: "SK-OV-3"
  Quantity unit: "µM"
  Endpoint value: 54.2
- Smiles notation: "COc1ccccc1NC1=C(Cl)C(=O)c2nc(C)ccc2C1=O"
  Experimental system: "SK-OV-3"
  Quantity unit: "µM"
  Endpoint value: 59.8
- Smiles notation: "CCOc1ccc(NC2=C(Cl)C(=O)c3nc(C)ccc3C2=O)cc1"
  Experimental system: "SK-OV-3"
  Quantity unit: "µM"
  Endpoint value: 82.3
- Smiles notation: "COc1cc(NC2=C(Cl)C(=O)c3nc(C)ccc3C2=O)cc(OC)c1"
  Experimental system: "SK-OV-3"
  Quantity unit: "µM"
  Endpoint value: 50.1

* * *

tested on: NCI-H23
Measured quantity: GI50 (nM)

- Smiles notation: "CCOc1ccc(NC2=C(Cl)C(=O)c3nc(C)ccc3C2=O)cc1"
  Quantity unit: "nM"
  Endpoint value: 1350
- Smiles notation: "COc1cc(NC2=C(Cl)C(=O)c3nc(C)ccc3C2=O)cc(OC)c1"
  Quantity unit: "nM"
  Endpoint value: 1530
- Smiles notation: "CCOc1ccccc1NC1=C(Cl)C(=O)c2nc(C)ccc2C1=O"
  Quantity unit: "nM"
  Endpoint value: 1440
- Smiles notation: "COc1ccccc1NC1=C(Cl)C(=O)c2nc(C)ccc2C1=O"
  Quantity unit: "nM"
  Endpoint value: 1470

* * *

Reported values of GP (growth percentage) for individual entries
test system: HCT-15; assay: NCI-60 one-dose screen (colon cancer); type: cell-based, human; details: 10 µM single dose, 48 h
Measured quantity: GP (growth percentage) (%)

- Smiles notation: "COc1ccccc1NC1=C(Cl)C(=O)c2nc(C)ccc2C1=O"
  Endpoint value: "−47.03"
- Smiles notation: "CCOc1ccccc1NC1=C(Cl)C(=O)c2nc(C)ccc2C1=O"
  Endpoint value: "−76.56"
- Smiles notation: "COc1cc(NC2=C(Cl)C(=O)c3nc(C)ccc3C2=O)cc(OC)c1"
  Endpoint value: "−66.21"
- Smiles notation: "COc1ccc(NC2=C(Cl)C(=O)c3nc(C)ccc3C2=O)cc1OC"
  Endpoint value: 82.29
- Smiles notation: "CCOc1ccc(NC2=C(Cl)C(=O)c3nc(C)ccc3C2=O)cc1"
  Endpoint value: "−83.19"
